Item-by-item account of Fold change MFI
- target-or-test-system: T1, chlorocebus (African green monkey) PVR expressed on Vero cells (chlorocebus (African green monkey), UniProt P32506 21-417)
- T1 construct: whole, on cells; also called chlorocebus PVR
- T1 sequence (looked up): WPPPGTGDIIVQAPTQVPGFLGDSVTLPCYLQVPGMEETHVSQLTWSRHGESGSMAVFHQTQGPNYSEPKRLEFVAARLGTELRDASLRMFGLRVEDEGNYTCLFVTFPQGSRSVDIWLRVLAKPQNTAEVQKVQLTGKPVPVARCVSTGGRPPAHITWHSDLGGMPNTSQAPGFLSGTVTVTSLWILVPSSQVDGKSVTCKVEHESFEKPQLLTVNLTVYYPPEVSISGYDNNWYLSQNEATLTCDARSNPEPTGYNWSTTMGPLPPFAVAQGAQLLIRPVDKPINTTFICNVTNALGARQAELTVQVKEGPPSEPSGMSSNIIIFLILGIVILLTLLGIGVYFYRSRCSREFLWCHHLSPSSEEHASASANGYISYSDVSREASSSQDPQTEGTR
- test: flow cytometry, 10 ug/ml antibody on Vero cells; MFI divided by the MFI of K0

binder	Fold change MFI
chimeric anti-PVR antibody 5B9 wild type, IgG4 (S241P), VH0/VK0 (antibody, V domains shown, Mouse/human chimeric antibody with human IgG4 (S241P) constant region; also called WT; parental N56 variant (VH0VK0)) VH: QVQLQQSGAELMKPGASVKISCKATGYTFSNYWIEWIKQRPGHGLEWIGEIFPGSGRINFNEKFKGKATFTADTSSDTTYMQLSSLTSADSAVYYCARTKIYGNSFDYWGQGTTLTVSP VL: DIMMTQSHKFMSTSVGDRVNITCKASQDVGTAVVWYQQKPGQSPKLLIYWASSRHNGVPDRFTGSGSGTDFTLTISNVQSEDLSDYFCQQYSRYPLTFGAGTKLELK	1
VH0/Vκ0 Ser56 (antibody, V domains shown, chimeric 5B9 N56 substitution variant; also called N56S) VH: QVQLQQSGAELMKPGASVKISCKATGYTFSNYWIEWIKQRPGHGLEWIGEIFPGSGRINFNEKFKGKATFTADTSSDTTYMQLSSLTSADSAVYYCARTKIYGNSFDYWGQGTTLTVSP VL: DIMMTQSHKFMSTSVGDRVNITCKASQDVGTAVVWYQQKPGQSPKLLIYWASSRHSGVPDRFTGSGSGTDFTLTISNVQSEDLSDYFCQQYSRYPLTFGAGTKLELK	0.73
chimeric 5B9 N56D variant, IgG4 (S241P) (antibody, name in Kabat numbering, V domains shown, Human IgG4 (S241P) constant region) VH: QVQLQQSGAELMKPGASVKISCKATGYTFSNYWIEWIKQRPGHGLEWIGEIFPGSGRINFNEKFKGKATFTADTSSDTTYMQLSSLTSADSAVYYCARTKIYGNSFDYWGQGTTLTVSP VL: DIMMTQSHKFMSTSVGDRVNITCKASQDVGTAVVWYQQKPGQSPKLLIYWASSRHDGVPDRFTGSGSGTDFTLTISNVQSEDLSDYFCQQYSRYPLTFGAGTKLELK	1.27
chimeric 5B9 N56E variant, IgG4(S241P) N56E_VH0/VK0 (antibody, name in Kabat numbering, V domains shown, Human IgG4 (S241P) constant region; also called chimeric N56E mutated parental antibody) VH: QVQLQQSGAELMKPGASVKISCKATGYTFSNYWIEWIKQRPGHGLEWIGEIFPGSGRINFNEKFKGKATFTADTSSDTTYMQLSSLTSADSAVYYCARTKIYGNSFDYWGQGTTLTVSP VL: DIMMTQSHKFMSTSVGDRVNITCKASQDVGTAVVWYQQKPGQSPKLLIYWASSRHEGVPDRFTGSGSGTDFTLTISNVQSEDLSDYFCQQYSRYPLTFGAGTKLELK	1.31
